The values you see were collected from the supplement of paper PMC9170038.

Catalogue of sequences with associated apparent KD of MS2 coat protein
- Test system: MS2 coat protein
- run_description: apparent KD of MS2 coat protein; higher = weaker reporter binding
- reported_conditions: Eterna round: R107; input ligand: theophylline 2 mM
reported_endpoint: apparent KD of MS2 coat protein (µM)

{"chain_sequence": "GGUCGCCAACAUGGGUGGGCGACCCUGGAAGGAGCGAGCGAGAGCUCAGGUAGGUCGCCAGAACAUGAGGAUCACCCAUGUAAUA [(A)''-(M)'-(A)'(Arg1)-(Arg2)-(M1)-(M2)_Design13]", "value_unit": "µM", "reported": 0.0703}
{"chain_sequence": "GUAUUACGGACGGCCGCCACUGUGGGACAUGAGGAUCACCCAUGUGGCGCUACUUACAAGUGCGACAGGACCGGGUCAUGGUUUG [theeternabot_sameState_MS2_Trp_B_1]", "value_unit": "µM", "reported": 0.783}
{"chain_sequence": "UUAAUCUAUGAAGAAAACUUUAUAGCAGAAGGAGCGUGAUAAAACACAGGUAGGUCGCUGAAGGGAACAUGAGGAUCACCCAUGU [AstrosSSArgA#19]", "value_unit": "µM", "reported": 0.0311}
